Origin of measurements: ChEMBL document CHEMBL4715815

test: Oral bioavailability in Sprague-Dawley rat at 3 mg/kg measured up to 24 hrs by LC-MS/MS analysis; assay type: ADME, organism-based; settings: in vivo
measured-metric: bioavailability (%)
Give the value, in units of %, as a plain number.

Given the entry `C=CC(=O)N1CCC(Cn2cc(-c3ccc4c(c3)OCO4)c3c(N)ncnc32)CC1` , report its measured bioavailability. 49.1

###

biological target: Calcium/calmodulin-dependent protein kinase type 1 (Homo sapiens); assay: Inhibition of CAMK1 (unknown origin)
pIC50: −log10 of the molar value.
measured-metric: pIC50

Field request: pIC50 | item: `C=CC(=O)N1CCC(Cn2cc(-c3ccc4c(c3)OCO4)c3c(N)ncnc32)CC1` < 5.00

###

assay: Inhibition of recombinant human PI3K using PIP2 as substrate incubate for 15 mins by LANCE assay
measured-metric: IC50

Could you share which IC50 value was measured for `C=CC(=O)N1CCC[C@@H](n2nc(-c3ccc(Oc4ccccc4)cc3)c3c(N)ncnc32)C1` ? > 10 µM

###

molecular target: Tyrosine-protein kinase Yes (Homo sapiens, UniProt P07947); test: Inhibition of recombinant human YES using biotinyl-beta Abeta-Abeta AYQAEENTYDEYEN as substrate incubate for 30 mins by LANCE assay
measured-metric: IC50
Enter the number, and then the unit.

State the recorded IC50 for this entry: `C=CC(=O)N1CCC(Cn2cc(-c3ccc4c(c3)OCO4)c3c(N)ncnc32)CC1` 146 nM

###

molecular target: UniProt Q15349
Sequence (Q15349 whole entry): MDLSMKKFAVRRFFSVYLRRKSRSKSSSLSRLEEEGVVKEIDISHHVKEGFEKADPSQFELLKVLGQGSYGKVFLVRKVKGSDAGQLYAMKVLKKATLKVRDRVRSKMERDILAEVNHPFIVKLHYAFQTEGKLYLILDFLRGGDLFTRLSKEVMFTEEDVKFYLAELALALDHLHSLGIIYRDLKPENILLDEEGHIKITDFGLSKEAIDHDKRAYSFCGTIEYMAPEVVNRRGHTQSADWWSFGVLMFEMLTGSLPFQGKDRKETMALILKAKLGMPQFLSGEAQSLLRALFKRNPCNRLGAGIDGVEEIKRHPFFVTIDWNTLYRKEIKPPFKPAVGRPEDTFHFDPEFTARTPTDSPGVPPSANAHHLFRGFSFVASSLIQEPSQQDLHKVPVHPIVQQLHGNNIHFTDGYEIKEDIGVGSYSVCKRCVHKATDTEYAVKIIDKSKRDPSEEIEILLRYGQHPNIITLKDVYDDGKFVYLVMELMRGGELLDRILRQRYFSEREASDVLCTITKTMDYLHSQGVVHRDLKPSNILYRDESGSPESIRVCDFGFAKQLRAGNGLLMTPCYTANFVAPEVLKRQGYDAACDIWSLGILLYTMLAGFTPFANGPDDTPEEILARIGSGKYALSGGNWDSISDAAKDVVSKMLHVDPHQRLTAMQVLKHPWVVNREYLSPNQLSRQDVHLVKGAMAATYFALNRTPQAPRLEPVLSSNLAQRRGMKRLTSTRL
measured-metric: IC50

Report IC50 for `C=CC(=O)N1CCC(Cn2cc(-c3ccc4c(c3)OCO4)c3c(N)ncnc32)CC1` please. > 10 µM

###

assay: Metabolic stability in dog liver microsomes assessed as half life at 100 uM/L measured upto 90 mins by LC-MS/MS analysis; type: ADME, Canis lupus familiaris, Microsome
measured-metric: half-life at 100 µM
Please state the value followed by its unit.

Need half-life at 100 µM, item `C=CC(=O)N1CCC(Cn2cc(-c3ccc4c(c3)OCO4)c3c(N)ncnc32)CC1` 5.25 h

###

Molecular target: Tyrosine-protein kinase TXK (Homo sapiens, UniProt P42681)
Sequence (P42681 whole entry): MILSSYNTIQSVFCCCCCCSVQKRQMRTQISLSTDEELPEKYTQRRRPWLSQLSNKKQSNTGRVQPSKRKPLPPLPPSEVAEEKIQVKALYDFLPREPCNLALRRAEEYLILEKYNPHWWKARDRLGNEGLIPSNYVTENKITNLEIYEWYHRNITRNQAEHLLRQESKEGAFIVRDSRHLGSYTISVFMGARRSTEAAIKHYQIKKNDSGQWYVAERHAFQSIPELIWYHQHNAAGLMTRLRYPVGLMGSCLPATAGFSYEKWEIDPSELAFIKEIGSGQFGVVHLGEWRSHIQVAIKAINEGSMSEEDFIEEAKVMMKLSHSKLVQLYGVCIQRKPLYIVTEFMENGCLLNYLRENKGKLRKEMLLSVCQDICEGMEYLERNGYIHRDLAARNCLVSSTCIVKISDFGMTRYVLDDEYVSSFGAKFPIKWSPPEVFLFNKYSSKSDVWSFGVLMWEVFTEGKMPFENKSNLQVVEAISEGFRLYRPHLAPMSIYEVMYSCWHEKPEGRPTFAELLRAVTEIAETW
measured-metric: IC50 (nM)
Reply numerically in nM, unit not repeated.

For the record `C=CC(=O)N1CCC(Cn2cc(-c3ccc4c(c3)OCO4)c3c(N)ncnc32)CC1` , what value of IC50 is listed for Tyrosine-protein kinase TXK (Homo sapiens, UniProt P42681)? 331

###

assay: Metabolic stability in mouse liver microsomes assessed as half life at 100 uM/L measured upto 90 mins by LC-MS/MS analysis; type: ADME, Microsome
measured-metric: half-life at 100 µM (h)
# unit: h | format: bare number

// half-life at 100 µM lookup, key: `C=CC(=O)N1CCC(Cn2cc(-c3ccc4c(c3)OCO4)c3c(N)ncnc32)CC1` 4.28

###

molecular target: Calcium/calmodulin-dependent protein kinase type IV (Homo sapiens, UniProt Q16566); test: Inhibition of CAMK4 (unknown origin)
Sequence (Q16566 whole entry): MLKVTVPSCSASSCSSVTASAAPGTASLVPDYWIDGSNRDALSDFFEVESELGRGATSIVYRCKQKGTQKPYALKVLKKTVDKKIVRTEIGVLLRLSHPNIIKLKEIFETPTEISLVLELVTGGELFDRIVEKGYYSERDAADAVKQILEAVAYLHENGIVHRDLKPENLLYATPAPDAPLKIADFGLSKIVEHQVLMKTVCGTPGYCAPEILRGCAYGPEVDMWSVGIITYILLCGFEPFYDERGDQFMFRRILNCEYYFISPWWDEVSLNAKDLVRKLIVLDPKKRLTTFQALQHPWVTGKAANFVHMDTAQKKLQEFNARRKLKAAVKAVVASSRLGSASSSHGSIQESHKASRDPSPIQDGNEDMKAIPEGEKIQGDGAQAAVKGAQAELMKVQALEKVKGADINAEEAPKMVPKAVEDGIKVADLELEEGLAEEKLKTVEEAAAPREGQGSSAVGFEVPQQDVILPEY
pIC50: −log10 of the molar value.
measured-metric: pIC50

Could you tell me which pIC50 is on file for `C=CC(=O)N1CCC(Cn2cc(-c3ccc4c(c3)OCO4)c3c(N)ncnc32)CC1` ? < 5.00

###

molecular target: Tyrosine-protein kinase Lyn (Homo sapiens, UniProt P07948); assay: Inhibition of recombinant human LYN using biotinyl-beta Abeta-Abeta AKVEKIGEGTYGVVYK as substrate incubate for 120 mins by LANCE assay
Sequence (P07948 whole entry): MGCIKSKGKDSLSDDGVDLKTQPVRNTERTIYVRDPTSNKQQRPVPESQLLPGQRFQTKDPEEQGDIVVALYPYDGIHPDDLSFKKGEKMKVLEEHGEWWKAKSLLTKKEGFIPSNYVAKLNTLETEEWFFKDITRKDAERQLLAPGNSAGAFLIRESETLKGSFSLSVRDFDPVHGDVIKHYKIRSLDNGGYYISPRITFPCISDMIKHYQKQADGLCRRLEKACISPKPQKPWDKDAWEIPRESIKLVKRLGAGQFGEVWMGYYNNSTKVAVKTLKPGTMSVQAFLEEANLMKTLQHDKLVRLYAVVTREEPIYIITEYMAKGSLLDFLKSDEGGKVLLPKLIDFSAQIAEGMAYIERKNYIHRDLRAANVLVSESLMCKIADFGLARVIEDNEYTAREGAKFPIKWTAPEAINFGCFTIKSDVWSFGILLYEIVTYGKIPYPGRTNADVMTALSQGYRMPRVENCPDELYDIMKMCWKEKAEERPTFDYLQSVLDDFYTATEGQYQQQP
measured-metric: pIC50
Conceptually, pIC50 converts a concentration in mol/L into minus its log10.

Recorded pIC50 for `C=CC(=O)N1CCC(Cn2cc(-c3ccc4c(c3)OCO4)c3c(N)ncnc32)CC1` , please? 6.59

###

assay: Clearance in Sprague-Dawley rat at 3 mg/kg, po measured up to 24 hrs by LC-MS/MS analysis; type: ADME, organism-based; conditions: in vivo
measured-metric: CL/F
Entry format: amount then unit.

Item `C=CC(=O)N1CCC(Cn2cc(-c3ccc4c(c3)OCO4)c3c(N)ncnc32)CC1` has what recorded CL/F? 45.8 mL/min/kg

###

molecular target: Calcium/calmodulin-dependent protein kinase type II subunit beta (Homo sapiens, UniProt Q13554); assay: Inhibition of CAMK2 (unknown origin)
Sequence (Q13554 whole entry): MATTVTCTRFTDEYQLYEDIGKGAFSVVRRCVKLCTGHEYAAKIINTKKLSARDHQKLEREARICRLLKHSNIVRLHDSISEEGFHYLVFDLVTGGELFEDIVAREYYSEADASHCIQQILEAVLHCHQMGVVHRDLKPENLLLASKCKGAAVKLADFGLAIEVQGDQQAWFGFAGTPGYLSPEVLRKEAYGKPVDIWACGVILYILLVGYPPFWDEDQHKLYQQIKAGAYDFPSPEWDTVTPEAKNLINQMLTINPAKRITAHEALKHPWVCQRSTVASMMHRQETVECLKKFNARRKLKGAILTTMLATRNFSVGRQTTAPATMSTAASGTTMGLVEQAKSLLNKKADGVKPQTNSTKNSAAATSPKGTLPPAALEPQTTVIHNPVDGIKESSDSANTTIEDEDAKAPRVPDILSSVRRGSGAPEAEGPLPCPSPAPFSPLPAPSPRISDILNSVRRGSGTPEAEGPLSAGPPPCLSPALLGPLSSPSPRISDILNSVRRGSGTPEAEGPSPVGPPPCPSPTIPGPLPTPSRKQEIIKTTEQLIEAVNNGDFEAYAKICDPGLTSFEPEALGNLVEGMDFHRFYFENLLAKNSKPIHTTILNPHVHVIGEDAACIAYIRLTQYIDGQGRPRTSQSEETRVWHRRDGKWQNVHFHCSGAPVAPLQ
measured-metric: IC50

Could you share which IC50 value was measured for `C=CC(=O)N1CCC(Cn2cc(-c3ccc4c(c3)OCO4)c3c(N)ncnc32)CC1` ? > 10 µM

###

assay: Metabolic stability in monkey liver microsomes assessed as half life at 100 uM/L measured upto 90 mins by LC-MS/MS analysis; type: ADME, Macaca mulatta, Microsome; conditions: rhesus monkey
measured-metric: half-life at 100 µM (h)
Respond with the bare value in h.

half-life at 100 µM for `C=CC(=O)N1CCC(Cn2cc(-c3ccc4c(c3)OCO4)c3c(N)ncnc32)CC1` ? 2.82

###

biological target: BDNF/NT-3 growth factors receptor (Homo sapiens, UniProt Q16620); test: Inhibition of recombinant human TRKb using Ulight-Poly GAT[EAY(1:1:1)]n as substrate incubate for 10 mins by LANCE assay
Sequence (Q16620 whole entry): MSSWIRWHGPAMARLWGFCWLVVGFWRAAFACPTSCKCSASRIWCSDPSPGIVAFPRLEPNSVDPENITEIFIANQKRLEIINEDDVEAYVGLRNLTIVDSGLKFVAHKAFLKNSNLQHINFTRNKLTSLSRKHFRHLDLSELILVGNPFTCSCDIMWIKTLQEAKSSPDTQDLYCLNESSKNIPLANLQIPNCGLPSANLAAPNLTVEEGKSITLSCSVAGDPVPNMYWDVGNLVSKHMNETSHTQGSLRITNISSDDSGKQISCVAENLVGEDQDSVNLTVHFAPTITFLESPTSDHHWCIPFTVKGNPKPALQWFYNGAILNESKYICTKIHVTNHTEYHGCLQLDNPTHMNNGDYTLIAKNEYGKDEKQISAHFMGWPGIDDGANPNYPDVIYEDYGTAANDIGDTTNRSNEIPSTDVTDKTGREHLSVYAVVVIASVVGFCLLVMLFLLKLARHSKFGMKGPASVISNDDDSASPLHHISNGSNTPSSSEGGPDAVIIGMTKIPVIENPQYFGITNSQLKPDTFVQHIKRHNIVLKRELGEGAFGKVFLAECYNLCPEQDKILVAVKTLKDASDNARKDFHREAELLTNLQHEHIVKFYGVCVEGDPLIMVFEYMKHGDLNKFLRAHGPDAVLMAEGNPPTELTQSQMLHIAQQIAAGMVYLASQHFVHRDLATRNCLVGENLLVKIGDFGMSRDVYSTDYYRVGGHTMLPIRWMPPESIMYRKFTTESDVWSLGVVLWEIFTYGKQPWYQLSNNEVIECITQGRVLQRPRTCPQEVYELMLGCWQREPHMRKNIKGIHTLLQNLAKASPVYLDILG
pIC50: −log10 of the molar value.
measured-metric: pIC50

Give its pIC50 value. Item: `C=CC(=O)N1CCC(Cn2cc(-c3ccc4c(c3)OCO4)c3c(N)ncnc32)CC1` < 5.00

###

Target: Tyrosine-protein kinase ITK/TSK (Homo sapiens, UniProt Q08881)
Sequence (Q08881 whole entry): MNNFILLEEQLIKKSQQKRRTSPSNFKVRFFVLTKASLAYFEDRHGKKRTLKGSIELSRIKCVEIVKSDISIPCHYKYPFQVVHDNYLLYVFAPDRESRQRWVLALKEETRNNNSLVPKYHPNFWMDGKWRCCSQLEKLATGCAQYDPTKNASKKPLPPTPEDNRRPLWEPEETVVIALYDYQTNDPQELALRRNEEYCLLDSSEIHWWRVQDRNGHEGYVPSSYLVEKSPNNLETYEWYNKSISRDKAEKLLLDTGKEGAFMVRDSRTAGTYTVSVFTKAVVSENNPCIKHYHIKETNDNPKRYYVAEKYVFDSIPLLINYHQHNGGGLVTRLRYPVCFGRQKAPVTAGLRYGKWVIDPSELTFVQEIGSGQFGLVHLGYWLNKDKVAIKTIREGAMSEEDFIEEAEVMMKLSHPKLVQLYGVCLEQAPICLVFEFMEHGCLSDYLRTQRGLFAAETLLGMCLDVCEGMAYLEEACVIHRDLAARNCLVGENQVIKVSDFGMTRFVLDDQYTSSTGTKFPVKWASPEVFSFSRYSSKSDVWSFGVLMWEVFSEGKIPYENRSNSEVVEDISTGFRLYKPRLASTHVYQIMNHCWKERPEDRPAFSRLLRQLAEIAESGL
pIC50: −log10 of the molar value.
measured-metric: pIC50

What value of pIC50 on Tyrosine-protein kinase ITK/TSK (Homo sapiens, UniProt Q08881) does `C=CC(=O)N1CCC(Cn2cc(-c3ccc4c(c3)OCO4)c3c(N)ncnc32)CC1` have? < 5.00

###

experiment: AUC (0 to t) in Sprague-Dawley rat at 3 mg/kg, po measured up to 24 hrs by LC-MS/MS analysis; assay type: ADME, organism-based; set-up: route oral, dose 3 mg/kg, time <=24; conditions: in vivo
measured-metric: AUC(0-t) at 24 h

Requested field: AUC(0-t) at 24 h. Item: `C=CC(=O)N1CCC(Cn2cc(-c3ccc4c(c3)OCO4)c3c(N)ncnc32)CC1` 1240 ng·h/mL

###

target: Epidermal growth factor receptor (Homo sapiens, UniProt P00533)
Sequence (P00533 whole entry): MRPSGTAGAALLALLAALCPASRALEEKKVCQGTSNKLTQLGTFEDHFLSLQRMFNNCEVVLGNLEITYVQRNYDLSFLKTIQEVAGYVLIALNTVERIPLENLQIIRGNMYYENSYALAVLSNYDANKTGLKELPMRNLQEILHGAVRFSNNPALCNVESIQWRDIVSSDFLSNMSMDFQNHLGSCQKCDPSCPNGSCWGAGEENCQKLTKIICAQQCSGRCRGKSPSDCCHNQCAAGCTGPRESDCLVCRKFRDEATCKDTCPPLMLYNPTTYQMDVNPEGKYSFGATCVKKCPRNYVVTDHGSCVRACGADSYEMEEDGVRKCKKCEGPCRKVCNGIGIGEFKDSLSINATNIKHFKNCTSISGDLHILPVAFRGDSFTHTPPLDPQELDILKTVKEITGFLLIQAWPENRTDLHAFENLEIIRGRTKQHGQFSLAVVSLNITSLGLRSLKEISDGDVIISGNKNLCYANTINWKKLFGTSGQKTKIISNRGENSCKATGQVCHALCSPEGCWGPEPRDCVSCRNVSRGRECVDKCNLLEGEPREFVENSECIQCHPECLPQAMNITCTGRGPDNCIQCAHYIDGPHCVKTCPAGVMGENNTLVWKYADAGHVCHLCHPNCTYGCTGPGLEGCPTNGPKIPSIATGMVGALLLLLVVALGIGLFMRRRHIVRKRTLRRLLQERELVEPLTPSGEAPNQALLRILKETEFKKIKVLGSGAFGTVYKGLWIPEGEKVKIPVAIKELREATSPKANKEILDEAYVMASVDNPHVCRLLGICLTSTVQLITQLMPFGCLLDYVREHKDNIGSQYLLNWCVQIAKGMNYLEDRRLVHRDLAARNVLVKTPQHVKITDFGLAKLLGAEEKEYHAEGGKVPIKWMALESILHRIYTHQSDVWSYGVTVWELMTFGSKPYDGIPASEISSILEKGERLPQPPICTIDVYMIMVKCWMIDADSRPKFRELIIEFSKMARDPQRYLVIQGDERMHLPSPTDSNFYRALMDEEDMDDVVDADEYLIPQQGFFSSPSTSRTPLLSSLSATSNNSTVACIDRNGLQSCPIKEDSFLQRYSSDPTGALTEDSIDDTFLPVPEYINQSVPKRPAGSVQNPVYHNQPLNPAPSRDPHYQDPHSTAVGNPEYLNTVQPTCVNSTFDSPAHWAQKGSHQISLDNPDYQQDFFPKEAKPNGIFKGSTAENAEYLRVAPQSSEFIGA
pIC50: −log10 of the molar value.
measured-metric: pIC50

# query: pIC50 of entry `C=CC(=O)N1CCC(Cn2cc(-c3ccc4c(c3)OCO4)c3c(N)ncnc32)CC1` < 5.00

###

target: Mitogen-activated protein kinase kinase kinase 7 (Homo sapiens); assay: Inhibition of recombinant human TAK1 using Ulight-FLGFTYVAP as substrate incubate for 90 mins by LANCE assay
Sequence (O43318 whole entry): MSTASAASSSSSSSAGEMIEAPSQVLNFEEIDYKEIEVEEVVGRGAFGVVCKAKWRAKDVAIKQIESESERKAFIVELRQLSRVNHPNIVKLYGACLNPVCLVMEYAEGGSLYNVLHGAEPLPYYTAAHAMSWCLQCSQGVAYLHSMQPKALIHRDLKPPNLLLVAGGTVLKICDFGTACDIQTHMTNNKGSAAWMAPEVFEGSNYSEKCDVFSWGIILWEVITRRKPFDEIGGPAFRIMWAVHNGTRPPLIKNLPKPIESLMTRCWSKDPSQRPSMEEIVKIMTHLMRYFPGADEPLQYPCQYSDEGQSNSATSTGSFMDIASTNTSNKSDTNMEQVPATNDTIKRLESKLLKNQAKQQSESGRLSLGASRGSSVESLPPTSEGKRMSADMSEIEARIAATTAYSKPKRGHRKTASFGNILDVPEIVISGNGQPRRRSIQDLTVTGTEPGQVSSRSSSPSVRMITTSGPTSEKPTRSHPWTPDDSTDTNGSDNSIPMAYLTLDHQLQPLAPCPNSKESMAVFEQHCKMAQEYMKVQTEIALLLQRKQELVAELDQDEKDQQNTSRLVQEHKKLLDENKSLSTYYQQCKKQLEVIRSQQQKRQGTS
measured-metric: IC50

May I ask what IC50 has been recorded for `C=CC(=O)N1CCC(Cn2cc(-c3ccc4c(c3)OCO4)c3c(N)ncnc32)CC1` ? > 10 µM
